# Tested on: Key Broadleaf Weed and Crop Species
# test protocol: Post-Emergent Test II: postemergent herbicidal activity, visual rating after 14 d (Table 7)
# Type: in vivo
# condition details: post-emergence, 336 h, lambsquarters (Chenopodium album), 70 g ai/ha, read-out: Visual Growth Reduction (%) 14 Days After Application CHEAL

structure notation	pest or weed control at 70 g/ha
COC(=O)c1nc(-c2c(F)cc3c(c2F)OCO3)cc(N)c1Cl	95 to 100%
COC(=O)c1nc(-c2ccc(F)c3c2OC(F)(F)O3)c(F)c(N)c1Cl	85 to 94%
Nc1c(F)c(-c2cc(F)c3c(c2)OC(F)(F)O3)nc(C(=O)O)c1Cl	0 to 29%
COC(=O)c1nc(-c2cc3c(cc2OC)OC(F)(F)O3)cc(N)c1Cl	0 to 29%
Cc1c(-c2cc(N)c(Cl)c(C(=O)O)n2)ccc2c1OC(F)(F)O2	45 to 59%
COC(=O)c1nc(-c2ccc3c(c2)OC(C)(C)O3)c(F)c(N)c1Cl	75 to 84%
Nc1c(F)c(-c2ccc(Br)c3c2OC(F)(F)O3)nc(C(=O)O)c1Cl	95 to 100%
COc1cc(-c2nc(C(=O)O)c(Cl)c(N)c2F)cc2c1OCO2	45 to 59%
COc1c(N)nc(-c2ccc3c(c2)OC(F)(F)O3)nc1C(=O)O	0 to 29%
COC(=O)c1nc(-c2cc3c(cc2F)OCO3)c(F)c(N)c1OC	0 to 29%
COC(=O)c1nc(-c2ccc3c(c2F)OC(F)(F)O3)nc(N)c1Cl	95 to 100%
Nc1c(F)c(-c2cccc3c2OC(F)(F)O3)nc(C(=O)O)c1Cl	95 to 100%
Nc1c(F)c(-c2ccc3c(c2)OC(F)(F)O3)nc(C(=O)O)c1Cl	95 to 100%
Cc1c(-c2ccc3c(c2)OC(F)(F)O3)nc(C(=O)O)c(Cl)c1N	0 to 29%
COC(=O)c1nc(-c2ccc(Br)c3c2OC(F)(F)O3)c(F)c(N)c1Cl	95 to 100%
COC(=O)c1nc(-c2ccc(Cl)c3c2OC(F)(F)O3)c(Cl)c(N)c1Cl	85 to 94%
COc1c(N)nc(-c2ccc3c(c2F)OC(F)(F)O3)nc1C(=O)O	85 to 94%
COC(=O)c1nc(-c2ccc3c(c2F)OC(F)(F)O3)cc(N)c1Cl	95 to 100%
